# Test system: Wolbachia pipientis
# procedureSummary: Anti-Wolbachia Cell-Based Screen
# Type: functional
# Design: scale not given: in the data most compounds retested in dose-response had high values
# measurementConditions: 5 µM
Screen size: about 48,000 compounds; about 13,000 (27%) showed an effect of 50% or more. The list shows a part of the results.

| molecule | targetDesc | Percent Effect |
| --- | --- | --- |
| CC[C@@]1(O)CCN(C(=O)CN(C)Cc2ccc(F)cc2)C[C@H]1O | Wolbachia pipientis | -15.44% |
| CC(C)C1CN(S(=O)(=O)N(C)C)CCCN1Cc1ccc(F)cc1 (configuration not stated) | Wolbachia pipientis | 3.4% |
| CN(C)S(=O)(=O)N1CCC2(CCCN(Cc3ccc(F)cc3)C2=O)C1 (configuration not stated) | Wolbachia pipientis | -3.561% |
| CCS(=O)(=O)N1C[C@@H](O)[C@H](N(C)Cc2ccc(F)cc2)C1 | Wolbachia pipientis | 127.5% |
| CNc1nc(CS(=O)(=O)c2ccccc2)cs1 | Wolbachia pipientis | 7.424% |
| CC(C)n1nc2c(cc1=O)CN(Cc1nnc(C3CC3)o1)CC2 | Wolbachia pipientis | 15.52% |
| CS(=O)(=O)N1CCO[C@@H]2CN(Cc3ccc(F)cc3)C[C@@H]2C1 | Wolbachia pipientis | -1.129% |
| Cc1cc(N2CCC(n3cc(CN4CCC[C@@H]4CO)nn3)CC2)ccn1 | Wolbachia pipientis | -20.23% |
| CN(Cc1ccc(F)cc1)[C@@H]1CN(S(C)(=O)=O)C[C@H]1O | Wolbachia pipientis | 89.96% |
| CN(Cc1ccc(F)cc1)[C@@H]1CN(S(=O)(=O)N(C)C)C[C@H]1O | Wolbachia pipientis | 124.5% |
| CN(Cc1ccc(F)cc1)S(=O)(=O)N1CCOCC1 | Wolbachia pipientis | -4.525% |
| CN(Cc1ccc(F)cc1)[C@@H]1CN(C(=O)c2cccs2)C[C@H]1O | Wolbachia pipientis | 3.837% |
